The measurements presented in this section are drawn from patent US8524750B2.

- Test system: Mycobacterium tuberculosis H37Rv
- assay.overview: Mycobacterium tuberculosis H37Rv Inhibition Assay (Whole Cell Assay)
- Type: cell-based
- study.conditions: ATCC 25618 / H37Rv, H37Rv strain (ATCC25618), Middlebrook 7H9, six days at 37° C., resazurin fluorescence after 48 hours
MIC for assorted compounds
measured.metric: MIC

compound	measured.metric	result
COC(C)(c1nc(C)cs1)c1nnc(Nc2ccn(Cc3c(F)cccc3Cl)n2)s1 (stereo not drawn)	MIC	1 to 4 µM
Cc1cc(C(F)F)nn1Cc1nnc(Nc2ccn(Cc3ccccc3)n2)s1	MIC	> 10 µM
Cc1ccn(C(C)c2nnc(Nc3ccn(Cc4c(F)ccc(C)c4F)n3)s2)n1 (stereo not drawn)	MIC	≤ 1 µM
Cc1ccn(C(C)c2nnc(Nc3ccn(Cc4c(Cl)cccc4Cl)n3)s2)n1 (stereo not drawn)	MIC	1 to 4 µM
Cc1cc(C)n(C(C)c2nnc(Nc3ccn(Cc4c(Cl)ccc(C)c4F)n3)s2)n1 (stereo not drawn)	MIC	1 to 4 µM
CC(c1nc(C(F)(F)F)cs1)c1nnc(Nc2ccn(Cc3c(F)cccc3Cl)n2)s1 (stereo not drawn)	MIC	> 10 µM
Cc1cc(C)n(C(C)c2nnc(Nc3ccn(Cc4cc(F)ccc4Cl)n3)s2)n1 (stereo not drawn)	MIC	4 to 10 µM
Cc1ccn([C@@H](C)c2nnc(Nc3ccn(Cc4c(F)cccc4Cl)n3)s2)n1 (single isomer, unassigned)	MIC	1 to 4 µM
Cc1cc(C)n(C(C)c2nnc(Nc3ccn(Cc4c(F)ccc(C)c4Cl)n3)s2)n1 (stereo not drawn)	MIC	≤ 1 µM
Cc1csc([C@](C)(O)c2nnc(Nc3ccn(Cc4c(F)cccc4Cl)n3)s2)n1 (single isomer, unassigned)	MIC	≤ 1 µM
FC(F)(F)c1ccn(Cc2nnc(Nc3ccn(Cc4ccccc4Cl)n3)s2)n1	MIC	> 10 µM
Cc1cc(C)n(C(C)c2nnc(Nc3cc(C)n(Cc4c(F)cccc4Cl)n3)s2)n1 (stereo not drawn)	MIC	1 to 4 µM
